System: Trypanosoma cruzi
method.summary: Antitypanosomal activity against benznidazole-resistant epimastigote stage of Trypanosoma cruzi Y assessed as parasite growth inhibition after 11 days by hemacytometric analysis
Type: functional, organism-based
assay.setup: Trypanosoma cruzi, Y, 264 h; read-out: IC50
log10 of IC50 overview
measurement.name: log10 of IC50 (log10 of the value in µM)

- molecule: "Cc1ccc(C2C(c3ccc([N+](=O)[O-])cc3)=NOC23SCc2ccccc2C3=O)cc1 (configuration not stated)"
  log10 of IC50: 1.45
- molecule: "O=C(Cn1ccnc1[N+](=O)[O-])NCc1ccccc1"
  log10 of IC50: 0.82
- molecule: "Cc1ccc(C2=NOC3(SCc4ccccc4C3=O)C2c2ccc(C)cc2)cc1 (configuration not stated)"
  log10 of IC50: 1.28
- molecule: "COc1ccc(C2=NOC3(SCc4ccccc4C3=O)C2c2ccc(C)cc2)cc1 (configuration not stated)"
  log10 of IC50: 1.80
- molecule: "O=C1c2ccccc2CSC12ON=C(c1ccc(Cl)cc1)C2c1ccc([N+](=O)[O-])cc1 (configuration not stated)"
  log10 of IC50: 1.31
- molecule: "COc1ccc(C2C(c3ccc(C)cc3)=NOC23SCc2ccccc2C3=O)cc1 (configuration not stated)"
  log10 of IC50: 0.74
- molecule: "COc1ccc(C2=NOC3(SCc4ccccc4C3=O)C2c2ccc(OC)cc2)cc1 (configuration not stated)"
  log10 of IC50: 0.29
